biological target: Integrin alpha-v beta-3 (UniProt P06756;P05106 P06756:31-992,P05106:27-718); test: filter; Bmax 0.82; HEPES, NaCl, KCl, MgCl2 buffer, 37 C; details: tags: R&D Systems 3050-AV
Sequence (P06756 31-992, chain 1 of 2): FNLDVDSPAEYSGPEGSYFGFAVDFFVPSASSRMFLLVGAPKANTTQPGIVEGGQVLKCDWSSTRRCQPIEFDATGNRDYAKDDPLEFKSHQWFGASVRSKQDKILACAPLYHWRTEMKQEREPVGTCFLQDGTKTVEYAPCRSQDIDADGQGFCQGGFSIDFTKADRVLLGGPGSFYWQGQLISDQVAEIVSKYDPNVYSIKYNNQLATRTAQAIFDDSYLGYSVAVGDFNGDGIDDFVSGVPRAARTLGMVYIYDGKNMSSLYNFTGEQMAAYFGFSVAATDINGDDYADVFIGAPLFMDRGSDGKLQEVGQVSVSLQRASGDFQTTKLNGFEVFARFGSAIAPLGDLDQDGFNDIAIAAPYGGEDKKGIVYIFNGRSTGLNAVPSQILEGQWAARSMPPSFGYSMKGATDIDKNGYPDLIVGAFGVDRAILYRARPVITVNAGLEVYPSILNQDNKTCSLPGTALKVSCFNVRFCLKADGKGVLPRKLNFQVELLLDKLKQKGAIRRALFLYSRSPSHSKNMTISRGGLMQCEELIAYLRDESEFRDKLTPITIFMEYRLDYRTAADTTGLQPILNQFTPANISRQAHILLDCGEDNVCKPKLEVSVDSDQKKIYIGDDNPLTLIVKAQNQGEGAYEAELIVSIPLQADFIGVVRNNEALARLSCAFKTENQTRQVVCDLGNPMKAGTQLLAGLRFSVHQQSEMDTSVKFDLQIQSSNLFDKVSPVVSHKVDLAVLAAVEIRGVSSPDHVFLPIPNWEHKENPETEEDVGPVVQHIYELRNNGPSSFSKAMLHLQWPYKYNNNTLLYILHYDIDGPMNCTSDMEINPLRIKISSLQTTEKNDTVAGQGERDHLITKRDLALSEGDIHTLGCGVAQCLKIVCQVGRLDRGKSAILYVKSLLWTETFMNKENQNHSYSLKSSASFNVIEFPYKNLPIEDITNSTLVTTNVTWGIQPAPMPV
Sequence (P05106 27-718, chain 2 of 2): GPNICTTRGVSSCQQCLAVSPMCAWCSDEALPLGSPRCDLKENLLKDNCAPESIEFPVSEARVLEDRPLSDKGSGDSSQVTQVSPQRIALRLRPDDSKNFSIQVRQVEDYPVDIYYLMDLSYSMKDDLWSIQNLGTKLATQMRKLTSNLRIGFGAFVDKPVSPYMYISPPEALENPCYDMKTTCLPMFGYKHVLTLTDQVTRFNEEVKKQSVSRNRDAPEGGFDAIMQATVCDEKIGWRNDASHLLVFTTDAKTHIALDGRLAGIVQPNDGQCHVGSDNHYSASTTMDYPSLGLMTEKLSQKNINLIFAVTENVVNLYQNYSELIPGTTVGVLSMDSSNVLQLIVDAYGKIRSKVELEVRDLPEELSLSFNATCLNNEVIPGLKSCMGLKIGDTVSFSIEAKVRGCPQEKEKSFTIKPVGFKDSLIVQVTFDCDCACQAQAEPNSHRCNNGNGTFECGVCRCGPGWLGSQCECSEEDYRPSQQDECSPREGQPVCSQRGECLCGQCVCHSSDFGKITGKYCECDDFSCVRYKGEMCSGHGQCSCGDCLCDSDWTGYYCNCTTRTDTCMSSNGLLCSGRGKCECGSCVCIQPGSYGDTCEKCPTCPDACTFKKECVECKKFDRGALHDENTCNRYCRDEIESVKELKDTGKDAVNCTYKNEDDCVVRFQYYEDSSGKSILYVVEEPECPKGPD
MEASUREMENT NAME: pKd
In plain terms, pKd is the concentration in mol/L turned into minus its base-10 logarithm.

The binder identified as Clone #25 (S003-A4-025-T7_A04), full length (ssDNA, n in core = 5-(N-benzylaminocarbonyl)-2'-deoxyuridine (BzdU) [n positions 20,21,22,23,30,31,41,42,46,47,49,50,51,54 = modified dU]) DNA: TCAGCCGCCAGCCAGTTCGTTTTAAGAAATTAGCACACCGTTGACTTGTTTAGTGGCGGACCAGAGCACCACAGAG registered its pKd at 7.76
